Entry source: patent US20250243286A1

target: ActRIIA and ActRIIB (on TGFB/SMAD SBE Reporter HEK293 cells) (human); test: cell-based or functional assay
Sequence (chain, as listed by the source, chain 1 of 2): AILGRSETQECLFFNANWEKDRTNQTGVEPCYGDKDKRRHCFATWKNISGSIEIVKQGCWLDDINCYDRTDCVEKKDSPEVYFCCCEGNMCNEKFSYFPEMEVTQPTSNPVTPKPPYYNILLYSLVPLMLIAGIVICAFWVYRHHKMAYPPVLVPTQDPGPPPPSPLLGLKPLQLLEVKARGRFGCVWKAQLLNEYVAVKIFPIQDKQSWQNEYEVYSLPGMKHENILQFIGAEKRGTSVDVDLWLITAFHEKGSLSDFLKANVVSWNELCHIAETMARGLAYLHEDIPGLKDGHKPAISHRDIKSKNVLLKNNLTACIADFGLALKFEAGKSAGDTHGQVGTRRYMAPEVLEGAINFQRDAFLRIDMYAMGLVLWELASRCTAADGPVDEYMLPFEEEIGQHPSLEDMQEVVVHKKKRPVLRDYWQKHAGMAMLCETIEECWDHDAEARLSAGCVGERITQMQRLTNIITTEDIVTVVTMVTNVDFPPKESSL
Sequence (chain, as listed by the source, chain 2 of 2): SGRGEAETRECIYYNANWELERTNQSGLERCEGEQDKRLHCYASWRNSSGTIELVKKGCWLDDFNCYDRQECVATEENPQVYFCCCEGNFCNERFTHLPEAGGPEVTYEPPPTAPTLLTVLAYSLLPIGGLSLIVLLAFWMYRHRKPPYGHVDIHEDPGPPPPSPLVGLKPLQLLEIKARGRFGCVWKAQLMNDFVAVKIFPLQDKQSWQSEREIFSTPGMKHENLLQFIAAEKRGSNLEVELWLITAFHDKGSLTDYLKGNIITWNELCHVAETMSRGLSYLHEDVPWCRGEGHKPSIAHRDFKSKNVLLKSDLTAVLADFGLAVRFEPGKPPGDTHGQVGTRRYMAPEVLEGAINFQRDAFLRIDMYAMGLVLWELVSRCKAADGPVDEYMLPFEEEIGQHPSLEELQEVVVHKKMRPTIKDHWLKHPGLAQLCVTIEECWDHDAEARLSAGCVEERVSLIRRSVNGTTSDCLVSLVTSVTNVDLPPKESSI
Readings of IC90, Myostatin SMAD RGA for the listed binders
Note: unit nM is implicit; provide only the numeric part.

- BINDER: "Antibody Hutzelbrot (antibody, V domains shown, full-length IgG) VH: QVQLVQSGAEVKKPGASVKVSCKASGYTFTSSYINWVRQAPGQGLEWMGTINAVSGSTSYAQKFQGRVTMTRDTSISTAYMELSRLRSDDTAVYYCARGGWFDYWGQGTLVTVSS VL: QSALTQPASVSGSPGQSITISCTGTSSDVGSKNYVNWYQQHPGKAPKLMIYGVSKRQSGVSNRFSGSKSGNTASLTISGLQAEDEADYYCGTFAGGDYYGVFGGGTKLTVL"
  IC90, Myostatin SMAD RGA, nM: 3.06

Exercise: Look up and state reported IC90, Myostatin SMAD RGA for Antibody Schwardamaga (antibody, V domains shown, full-length IgG) VH: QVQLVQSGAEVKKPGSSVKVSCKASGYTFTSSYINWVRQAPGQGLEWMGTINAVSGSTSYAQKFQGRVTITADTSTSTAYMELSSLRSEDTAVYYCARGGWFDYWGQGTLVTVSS VL: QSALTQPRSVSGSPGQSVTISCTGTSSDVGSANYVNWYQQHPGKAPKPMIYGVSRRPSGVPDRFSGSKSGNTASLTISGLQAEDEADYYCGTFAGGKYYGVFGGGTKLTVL
Key: 14.7

Exercise: Look up and state reported IC90, Myostatin SMAD RGA for Antibody Riaba (antibody, V domains shown, full-length IgG) VH: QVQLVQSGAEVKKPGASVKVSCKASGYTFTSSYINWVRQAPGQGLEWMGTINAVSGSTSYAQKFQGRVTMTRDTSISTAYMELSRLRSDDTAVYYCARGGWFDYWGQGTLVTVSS VL: QSALTQPASVSGSPGQSITISCTGTSSDVGSYNYVNWYQQHPGKAPKLMIYGVSKRDSGVSNRFSGSKSGNTASLTISGLQAEDEADYYCGTFAGGKYYGVFGGGTKLTVL
Key: 2.18
